inhibition of growth at 10 µM by entry:
# Tested on: RPMI-8226
# procedure.text: Growth inhibition of human RPMI-8226 cells at 10 uM incubated for 48 hrs by sulforhodamine B assay relative to control
# Type: functional
# setup.conditions: read-out: GI
experimental.endpoint: inhibition of growth at 10 µM

* O=C(CNC1CCCCC1)Nc1ccc(-c2nc3ccccc3s2)cc1 | 22.4%
* O=C(CN1CCCCC1)Nc1ccc(-c2nc3ccccc3s2)cc1 | 11.3%
* O=C(Cn1c2ccccc2c2ccccc21)Nc1ccc(-c2nc3ccccc3s2)cc1 | -18%
* O=C(CNc1nnc(-c2ccc(Cl)cc2)o1)Nc1ccc(-c2nc3ccccc3s2)cc1 | 4.61%
* NS(=O)(=O)c1ccc(NCC(=O)Nc2ccc(-c3nc4ccccc4s3)cc2)cc1 | 63.3%

---

# Test system: RPMI-8226
# procedure.text: Growth inhibition of human RPMI-8226 cells at 10 uM incubated for 48 hrs by sulforhodamine B assay relative to control
# Assay type: functional
# setup.conditions: read-out: GI
Kind request: treat 10% as inclusive, so inhibition of growth at 10 µM at 10% or higher is T, anything lower is F.

• O=C(CNc1c(Cl)cccc1Cl)Nc1ccc(-c2nc3ccccc3s2)cc1 = T
• O=C(CNc1ccccc1)Nc1ccc(-c2nc3ccccc3s2)cc1 = T
• O=C(Cn1nnc2ccccc21)Nc1ccc(-c2nc3ccccc3s2)cc1 = T
• O=C(CNc1ccc(Cl)cc1)Nc1ccc(-c2nc3ccccc3s2)cc1 = T
• O=C(CNc1nc(-c2ccc(Cl)cc2)cs1)Nc1ccc(-c2nc3ccccc3s2)cc1 = T
• Cc1cc(NCC(=O)Nc2ccc(-c3nc4ccccc4s3)cc2)no1 = F
• Cc1cc(C)n(CC(=O)Nc2ccc(-c3nc4ccccc4s3)cc2)n1 = F
• CN1CCN(CC(=O)Nc2ccc(-c3nc4ccccc4s3)cc2)CC1 = T
• COc1ccc(NCC(=O)Nc2ccc(-c3nc4ccccc4s3)cc2)cc1 = T
• Cc1ccc(NCC(=O)Nc2ccc(-c3nc4ccccc4s3)cc2)cc1 = T

---

# Test system: RPMI-8226
# procedure.text: Growth inhibition of human RPMI-8226 cells at 10 uM incubated for 48 hrs by sulforhodamine B assay relative to control
# Format: functional
# setup.conditions: read-out: GI
Kind request: treat 20% as inclusive, so inhibition of growth at 10 µM at 20% or higher is yes, anything lower is no.

• O=C(Cn1ccnc1)Nc1ccc(-c2nc3ccccc3s2)cc1 = yes
• O=C(Cn1ccc2ccccc21)Nc1ccc(-c2nc3ccccc3s2)cc1 = no
• O=C(Cn1cncn1)Nc1ccc(-c2nc3ccccc3s2)cc1 = no
• O=C(Cn1cnc2ccccc21)Nc1ccc(-c2nc3ccccc3s2)cc1 = yes
• O=C(CN(c1ccccc1)c1ccccc1)Nc1ccc(-c2nc3ccccc3s2)cc1 = no
• O=C(CN1CCOCC1)Nc1ccc(-c2nc3ccccc3s2)cc1 = no
• O=C(CN1C(=O)C(=O)c2ccccc21)Nc1ccc(-c2nc3ccccc3s2)cc1 = no
• O=C(CNc1nc2ccccc2s1)Nc1ccc(-c2nc3ccccc3s2)cc1 = no

---

# system.under.test: Monoglyceride lipase (Homo sapiens, UniProt Q99685)
# Sequence (Q99685 whole entry): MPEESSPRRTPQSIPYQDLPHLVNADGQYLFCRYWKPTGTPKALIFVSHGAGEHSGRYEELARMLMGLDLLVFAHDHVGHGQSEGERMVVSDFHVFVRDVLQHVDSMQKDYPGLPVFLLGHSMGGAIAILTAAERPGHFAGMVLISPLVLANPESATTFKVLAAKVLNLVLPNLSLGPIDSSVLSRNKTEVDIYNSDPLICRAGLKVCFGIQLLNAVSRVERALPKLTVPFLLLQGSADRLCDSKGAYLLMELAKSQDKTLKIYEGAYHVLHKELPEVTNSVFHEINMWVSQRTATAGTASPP
# procedure.text: Inhibition of MAGL (unknown origin)
pIC50: −log10 of the molar value.
experimental.endpoint: pIC50

- O=C(Nc1cccc(-c2ccccc2)c1)OC1CCCCC1: 4.55
- CN(C)C(=O)n1nnc(Cc2ccc(-c3ccccc3)cc2)n1: 9.05
- CCCCNC(=O)Oc1ccc(C2=NCCS2)cc1: 4.51
